Consider the following compounds; for each one, report its Fbg.
Species on record: Rattus norvegicus
method_summary: Open TG-GATES - Regimen: Single
Format: toxicity, organism-based, Sprague-Dawley
Set-up: regimen Single, gender Male, age 6 weeks
condition_set: in vivo, po, 0 mg/kg, 24 h, tissue Blood, route gavage, dose level Control
Respond numerically; units are mg/dL and should not be typed.

State, in one line, measured Fbg of Nc1nc(N)c2nc(-c3ccccc3)c(N)nc2n1
291

State, in one line, measured Fbg of CCC(C)(C)C(=O)O[C@H]1C[C@@H](C)C=C2C=C[C@H](C)[C@H](CC[C@@H]3C[C@@H](O)CC(=O)O3)[C@H]21
222.6

State, in one line, measured Fbg of C[C@]12CCC(=O)C=C1CC[C@@H]1[C@@H]2CC[C@@]2(C)[C@H]1CC[C@]2(C)O
275

State, in one line, measured Fbg of O=C(N[C@H](CO)[C@H](O)c1ccc([N+](=O)[O-])cc1)C(Cl)Cl
264

State, in one line, measured Fbg of CCc1oc2ccccc2c1C(=O)c1cc(I)c(O)c(I)c1
203.6

State, in one line, measured Fbg of CCN1CCCC1CNC(=O)c1cc(S(N)(=O)=O)ccc1OC (stereo unspecified) [SULPIRIDE]
278

State, in one line, measured Fbg of CCSCC[C@H](N)C(=O)O
226

State, in one line, measured Fbg of C#C[C@]1(O)CC[C@H]2[C@@H]3CCc4cc(O)ccc4[C@H]3CC[C@@]21C
245.4

State, in one line, measured Fbg of Oc1ncnc2[nH]ncc12
219

State, in one line, measured Fbg of CC(C)C(=O)Nc1ccc([N+](=O)[O-])c(C(F)(F)F)c1 [FLUTAMIDE]
206.4

State, in one line, measured Fbg of O=C(O)c1cccnc1
327.2

State, in one line, measured Fbg of CC(C)(S)[C@@H](N)C(=O)O
317.2

State, in one line, measured Fbg of CC(=N)S [THIOACETAMIDE]
218.5

State, in one line, measured Fbg of CN1C(=O)OC(C)(C)C1=O
254

State, in one line, measured Fbg of CC(=O)Oc1cc(C(C)C)c(OCCN(C)C)cc1C
285.6

State, in one line, measured Fbg of C[C@](N)(Cc1ccc(O)c(O)c1)C(=O)O
237.6

* * *

Species: Rattus norvegicus
method_summary: Open TG-GATES - Regimen: Daily Repeat
Format: toxicity, organism-based, Sprague-Dawley
Parameters: regimen Daily Repeat, gender Male, age 6 weeks
condition_set: in vivo, po, 300 mg/kg, […], tissue Plasma, route gavage, dose level Middle, time 28 day
Consider the following compounds; for each one, report its GLC.
Respond numerically; units are mg/dL and should not be typed.

State, in one line, measured GLC of O=C(N[C@H](CO)[C@H](O)c1ccc([N+](=O)[O-])cc1)C(Cl)Cl
172.8

State, in one line, measured GLC of CC(C)(S)[C@@H](N)C(=O)O
186.8

State, in one line, measured GLC of O=C(O)c1cccnc1
193.6

State, in one line, measured GLC of CCN1CCCC1CNC(=O)c1cc(S(N)(=O)=O)ccc1OC (centres undefined) [SULPIRIDE]
184.4
